- Species: Homo sapiens
- protocolNotes: Selectivity ratio of EC50 for human MC4R to EC50 for human MC1R
*1 amine or outer side, *2 acyl side, *3 side chain or, on linkers, in order; H or OH if unused. Where a SMILES comes first, the peptide text is derived from it. Bridges are numbered along the chain shown (N, C = ends). [ ]: non-standard residue; d: D form. X1 = n1nc([*:2])nnc1[*:1]; Nle = CCCC[C@H](N)C(=O)O
reportedEndpoint: Ratio EC50
Please give only the number in your answer, with no unit.

In: Which Ratio EC50 value is on record for CCCC[C@@H]1NC(=O)[C@@H]2CSc3nnc(nn3)SC[C@H](NC(=O)[C@H](CCCNC(=N)N)NC(=O)[C@H](CC(=O)O)NC(=O)[C@H](Cc3c[nH]c4ccccc34)NC(=O)[C@H](CCCNC(=N)N)NC(=O)[C@H](Cc3ccccc3)NC(=O)[C@H](Cc3cnc[nH]3)NC(=O)CNC1=O)C(=O)N[C@@H](Cc1cnc[nH]1)C(=O)N[C@@H](Cc1ccccc1)C(=O)N[C@@H](CCCNC(=N)N)C(=O)N[C@@H](Cc1c[nH]c3ccccc13)C(=O)N[C@@H](CCCNC(=N)N)C(=O)N2 (cyclo(CHFRWRC[Nle]GHFRWDR); linker 1-7 via X1) ?
Out: 40

###

- Species on record: Homo sapiens
- protocolNotes: Selectivity ratio of EC50 for human MC3R to EC50 for human MC1R
*1 amine or outer side, *2 acyl side, *3 side chain or, on linkers, in order; H or OH if unused. Where a SMILES comes first, the peptide text is derived from it. Bridges are numbered along the chain shown (N, C = ends). [ ]: non-standard residue; d: D form. X4 = C#CCCCCN1C(=O)C([*:1])=C([*:2])C1=O; X1 = n1nc([*:2])nnc1[*:1]; Nle = CCCC[C@H](N)C(=O)O
reportedEndpoint: Ratio EC50
Respond using a number only.

INSERT INTO assay_data (molecule, valuereported) VALUES
  ('C#CCCCCN1C(=O)C2=C(SC[C@@H]3NC(=O)[C@H](CCCNC(=N)N)NC(=O)[C@H](CC(=O)O)NC(=O)[C@H](Cc4c[nH]c5ccccc45)NC(=O)[C@H](CCCNC(=N)N)NC(=O)[C@H](Cc4ccccc4)NC(=O)[C@H](Cc4cnc[nH]4)NC(=O)CNC(=O)[C@H](CCCC)NC(=O)[C@H](CS2)NC(=O)[C@H](CCCNC(=N)N)NC(=O)[C@H](Cc2c[nH]c4ccccc24)NC(=O)[C@H](CCCNC(=N)N)NC(=O)[C@H](Cc2ccccc2)NC(=O)[C@H](Cc2cnc[nH]2)NC3=O)C1=O (cyclo(CHFRWRC[Nle]GHFRWDR); linker 1-7 via X4)', 2);

Note: attention shifts to another entry.
In: // query Ratio EC50 value for entry CCCC[C@@H]1NC(=O)[C@@H]2CSc3nnc(nn3)SC[C@H](NC(=O)[C@H](CCCNC(=N)N)NC(=O)[C@H](CC(=O)O)NC(=O)[C@H](Cc3c[nH]c4ccccc34)NC(=O)[C@H](CCCNC(=N)N)NC(=O)[C@H](Cc3ccccc3)NC(=O)[C@H](Cc3cnc[nH]3)NC(=O)CNC1=O)C(=O)N[C@@H](Cc1cnc[nH]1)C(=O)N[C@@H](Cc1ccccc1)C(=O)N[C@@H](CCCNC(=N)N)C(=O)N[C@@H](Cc1c[nH]c3ccccc13)C(=O)N[C@@H](CCCNC(=N)N)C(=O)N2 (cyclo(CHFRWRC[Nle]GHFRWDR); linker 1-7 via X1)
Out: 4

From: ChEMBL document CHEMBL5104192
